Biological target: Adrenergic receptors; alpha-1 A & B (Homo sapiens) (UniProt P35348+P35368)
Test: Relative binding affinity for human adrenergic receptor alpha 1b and alpha 1a
Format: protein assay
property.measured: Ratio

compound: O=C(CN1CCCCC1=O)NCCN1CCN(c2ccc(F)cc2OCC(F)(F)F)CC1
Ratio: 77
//
compound: CC(C)Oc1ccccc1N1CCN(CCNC(=O)CN2CCCCC2=O)CC1
Ratio: 5300
//
compound: CC(C)Oc1ccccc1N1CCN(CCOC(=O)CN2CCCCC2=O)CC1
Ratio: 59
//
compound: CC(C)Oc1cc(F)ccc1N1CCN(CCNC(=O)CN2CCCCC2=O)CC1
Ratio: 120
//
compound: CC(C)Oc1ccccc1N1CCN(CC(O)CC(=O)CN2CCCCC2=O)CC1 (configuration not stated)
Ratio: 556
//
compound: COc1ccccc1N1CCN(CCCNC(=O)CN2CCCCC2=O)CC1
Ratio: 102
//
compound: CCOC(=O)C1CCC(=O)N1CC(=O)NCCN1CCN(c2ccccc2OC(C)C)CC1 (configuration not stated)
Ratio: 1320
//
compound: CC(C)Oc1ccccc1N1CCN(C/C=C/C(=O)CN2CCCCC2=O)CC1
Ratio: 295

[A] CC(C)Oc1ccccc1N1CCN(CC(=O)CC(=O)CN2CCCCC2=O)CC1
[B] CC(C)Oc1ccccc1N1CCN(CCNC(=O)CN2CCCCCC2=O)CC1
Which record would sort first by descending Ratio, A or B ? Return value: the label identifying the chosen record. B

[1] CC(C)Oc1ccccc1N1CCN(CCN(C)C(=O)CN2CCCCC2=O)CC1
[2] CC(C)Oc1ccccc1N1CCN(CCCNC(=O)CN2CCCCC2=O)CC1
Could you tell me which of 1 and 2 has the lower Ratio reading? Return value: the label identifying the chosen record. 1
(1: 187, 2: 15200)

###

Target: Alpha adrenergic receptor (1a and 1d) (Homo sapiens) (UniProt P35348+P25100)
Sequence (P25100 whole entry, looked up): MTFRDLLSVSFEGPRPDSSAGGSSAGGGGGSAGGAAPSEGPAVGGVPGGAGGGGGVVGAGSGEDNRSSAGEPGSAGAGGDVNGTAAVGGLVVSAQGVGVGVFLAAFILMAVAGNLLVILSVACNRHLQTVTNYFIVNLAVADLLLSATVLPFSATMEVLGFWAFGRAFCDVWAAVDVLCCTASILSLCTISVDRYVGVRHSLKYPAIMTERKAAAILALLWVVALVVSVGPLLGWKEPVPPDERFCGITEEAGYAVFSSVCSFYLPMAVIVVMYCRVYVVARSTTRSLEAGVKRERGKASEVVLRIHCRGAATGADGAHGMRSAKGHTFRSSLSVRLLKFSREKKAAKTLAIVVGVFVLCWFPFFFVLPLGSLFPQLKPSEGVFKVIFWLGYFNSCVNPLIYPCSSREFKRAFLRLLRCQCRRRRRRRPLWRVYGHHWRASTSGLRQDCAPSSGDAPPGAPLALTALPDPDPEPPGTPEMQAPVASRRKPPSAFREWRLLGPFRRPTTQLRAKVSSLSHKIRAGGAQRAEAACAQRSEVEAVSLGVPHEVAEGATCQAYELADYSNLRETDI
Sequence (P35348 whole entry, looked up): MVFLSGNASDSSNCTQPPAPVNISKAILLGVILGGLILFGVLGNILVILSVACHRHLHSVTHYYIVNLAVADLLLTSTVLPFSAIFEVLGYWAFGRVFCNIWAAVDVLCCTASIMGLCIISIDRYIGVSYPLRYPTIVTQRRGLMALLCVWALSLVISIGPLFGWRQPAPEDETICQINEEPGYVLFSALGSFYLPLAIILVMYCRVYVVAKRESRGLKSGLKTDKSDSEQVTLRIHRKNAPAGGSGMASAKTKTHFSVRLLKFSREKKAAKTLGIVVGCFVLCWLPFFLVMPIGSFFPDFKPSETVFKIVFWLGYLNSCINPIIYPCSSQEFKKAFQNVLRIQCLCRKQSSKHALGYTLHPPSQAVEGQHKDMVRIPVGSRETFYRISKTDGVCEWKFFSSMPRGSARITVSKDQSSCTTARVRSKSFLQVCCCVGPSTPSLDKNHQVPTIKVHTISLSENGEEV
Experiment: Relative binding affinity for human adrenergic receptor alpha 1d and 1a
Assay type: protein assay
property.measured: Ratio

compound: CC(C)Oc1ccccc1N1CCN(CCOC(=O)CN2CCCCC2=O)CC1
reported: 3
//
compound: CC(C)Oc1ccccc1N1CCN(CCNC(=O)CN2CCCCC2=O)CC1 [RWJ-38063]
reported: 43
//
compound: CC(C)Oc1ccccc1N1CCN(CCNC(=O)CN2CCCCCC2=O)CC1 [RWJ-68157]
reported: 28

[1] CC(C)Oc1cc(F)ccc1N1CCN(CCNC(=O)CN2CCCCC2=O)CC1
[2] COc1ccccc1N1CCN(CCCNC(=O)CN2CCCCC2=O)CC1
[3] CC(C)Oc1ccccc1N1CCN(CC(O)CC(=O)CN2CCCCC2=O)CC1 (configuration not stated)
Arrange items by their Ratio values in increasing order. Hello, could you send the labels back in the order asked? Thank you. 3, 1, 2
(3: 9, 1: 54, 2: 102)

[I] O=C(CN1CCCCC1=O)NCCN1CCN(c2ccc(F)cc2OCC(F)(F)F)CC1
[II] CC(C)Oc1ccccc1N1CCN(CCCNC(=O)CN2CCCCC2=O)CC1 [RWJ-69736]
Which record would sort first by descending Ratio, I or II ? Return value: the label identifying the chosen record. II

[a] CCOC(=O)C1CCC(=O)N1CC(=O)NCCN1CCN(c2ccccc2OC(C)C)CC1 (configuration not stated)
[b] CC(C)Oc1ccccc1N1CCN(C/C=C/C(=O)CN2CCCCC2=O)CC1
Could you tell me which of a and b has the lower Ratio reading? Return value: the label identifying the chosen record. a
(a: 13, b: 33)
